Cited source for all entries: ChEMBL document CHEMBL1146919

Estrogen receptor beta (Homo sapiens, UniProt Q92731) data, read-out pEC50
Sequence (Q92731 whole entry): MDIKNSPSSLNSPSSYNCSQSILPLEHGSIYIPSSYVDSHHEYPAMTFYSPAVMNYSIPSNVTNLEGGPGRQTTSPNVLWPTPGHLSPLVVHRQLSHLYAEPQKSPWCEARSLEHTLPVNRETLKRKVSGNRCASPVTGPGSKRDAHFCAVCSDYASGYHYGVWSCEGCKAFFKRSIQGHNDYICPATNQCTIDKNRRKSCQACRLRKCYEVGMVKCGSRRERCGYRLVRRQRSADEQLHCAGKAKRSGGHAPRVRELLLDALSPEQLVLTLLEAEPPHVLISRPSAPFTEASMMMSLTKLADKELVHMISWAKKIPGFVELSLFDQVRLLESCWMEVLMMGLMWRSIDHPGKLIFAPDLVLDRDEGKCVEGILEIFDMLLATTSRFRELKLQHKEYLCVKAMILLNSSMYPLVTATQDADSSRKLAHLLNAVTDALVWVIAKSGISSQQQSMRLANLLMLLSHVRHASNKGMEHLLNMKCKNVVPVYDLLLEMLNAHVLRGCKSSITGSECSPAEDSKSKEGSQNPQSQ
In simple prose, pEC50 is minus the logarithm base ten of a concentration in moles per litre.

The cases that follow already have their pEC50 on record.
INSERT INTO measurements (compound, recorded_number) VALUES
  ('CCC1=C2c3ccc4[nH]nnc4c3CC2(CC)CCC1=O (stereo unspecified)', 8.14),
  ('CCC12CCC(=O)C=C1c1ccc3nn[nH]c3c1C2 (stereo unspecified)', 6.32),
  ('CCCC[C@@]12CCC(=O)C(C(F)(F)F)=C1c1ccc3[nH]nnc3c1C2', 8.64),
  ('CCCC[C@]12CCC(=O)C(CC)=C1c1ccc3[nH]nnc3c1C2', 7.55),
  ('CCCC[C@@]12CCC(=O)C(Br)=C1c1ccc3[nH]nnc3c1C2', 8.26);

Which measured pEC50 value corresponds to CCCCC12CCC(=O)C(CCC)=C1c1ccc3[nH]nnc3c1C2 (stereo unspecified) ?
7.02
